# ASSAY SYSTEM: human PD-L1 expressed on cell surface (human, UniProt Q9NZQ7 19-290)
# Sequence (Q9NZQ7 19-290 limits assumed): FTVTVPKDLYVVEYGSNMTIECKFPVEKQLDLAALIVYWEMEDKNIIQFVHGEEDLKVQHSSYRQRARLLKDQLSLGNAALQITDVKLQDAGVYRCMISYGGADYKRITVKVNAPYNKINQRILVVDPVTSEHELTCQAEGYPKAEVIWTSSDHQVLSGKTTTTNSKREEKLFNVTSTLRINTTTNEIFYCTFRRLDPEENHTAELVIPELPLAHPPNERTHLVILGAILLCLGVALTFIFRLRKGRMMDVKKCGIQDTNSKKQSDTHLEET
# ASSAY INFO: cell-based or functional assay
Exercise: for every item that follows, state its recorded Internalization (%), FACS, 1 µg/ml, 2 h.
Numbers only, in %.

binder="33E8 (antibody, human IgG1, V domains shown) VH: QSLEESGGDLVKPGASLTLTCTASGFYFSSGYDMSWVRQAPGKGLEWIASIFTTSGSTWYANWAKGRFTISKTSSTTVTLQMTSLTDADTATYFCTKDGVGSFYMNLWGPGTLVTVSS VL: LVMTQTPASVEVAVGGTVTIKCQASQTIGSNLAWYQQRPGQPPKLLIYKAFTLASGVSSRFKGSGSGTQFTLTISGVECADAATYYCQQGATRINIDNAFGGGTEVVVK" readout_units=% result_value=20.4
binder="73C8 (antibody, human IgG1, V domains shown) VH: QEQLEESGGGLVQPEGSLTLTCTVSGFSFSGDYYMSWVRQAPGKGLEWVASIYTGSLNTYYATWAKGRFTISLTSSTTVTLQMTSLTAADTATYFCARRNKNADYGHFDLWGPGTLVTVSS VL: YDMTQTPASVEVAVGGTVTIKCQASQSINDRLAWYQQKPGQPPKLLIYAASTLASGVPSRFRGSGSGTDFTLTISDLECADAATYYCQQGWTVSSLDNAFGGGTEVVAM" readout_units=% result_value=19.5

-- ask State, in one line, measured Internalization (%), FACS, 1 µg/ml, 2 h of 62E6 (antibody, human IgG1, V domains shown) VH: QEQLEESGGDLVKPEGSLTLTCTASGFSFSGDYYMSWVRQAPGKGLEWIASIYTGSLNIYYATWAKGRFTISLTSSTTVTLQMTSLTAADTATYFCARRNKNADYGHFDLWGPGTLVTVSS VL: YDMTQTPASVEVAVGGTVTIKCQASQSINDRLAWYQQKPRQPPKLLIYGASTLASGVPSRFKGSGSGTEFTLTISDLECVDAATYYCQQGWTVSSLDNAFGGGTEVVAK
-- reply 16.4
